Data origin, for the record: the supplement of paper PMC9112550

Known shrunken log2 fold change of a selection of sequences
Tested on: Escherichia coli TOP10
Test: shrunken log2 fold change of peptide-encoding DNA abundance (4.5 h post-induction vs induction); higher = less antimicrobial activity (less host growth inhibition)
Conditions: time post-induction: 4.5 h; library: site-saturation at positions 5, 18, 19, 20
reported-endpoint: shrunken log2 fold change

{"columns": ["monomer-sequence", "endpoint-value"],
 "data": [
  ["RRIRGRPPRLPRPRPRPWNMPRP", -0.0271],
  ["RRIRCRPPRLPRPRPRPGLLPRP", 0.0187],
  ["RRIRRRPPRLPRPRPRPDTLPRP", 0.06],
  ["RRIRARPPRLPRPRPRPNHQPRP", 0.243]
]}

* * *

Tested on: Escherichia coli TOP10
Experiment: shrunken log2 fold change of peptide-encoding DNA abundance (4.5 h post-induction vs induction); higher = less antimicrobial activity (less host growth inhibition)
Details: time post-induction: 4.5 h; library: site-saturation at positions 5, 18, 19, 20
Response key: Fulfilled means shrunken log2 fold change >= -0.06; Not fulfilled means shrunken log2 fold change < -0.06.

{"columns": ["monomer-sequence", "qualitative-label"],
 "data": [
  ["RRIRRRPPRLPRPRPRPTDMPRP", "Not fulfilled"],
  ["RRIRLRPPRLPRPRPRPVSVPRP", "Not fulfilled"],
  ["RRIRKRPPRLPRPRPRPYPPPRP", "Not fulfilled"],
  ["RRIRIRPPRLPRPRPRPACGPRP", "Fulfilled"],
  ["RRIRLRPPRLPRPRPRPWYDPRP", "Not fulfilled"],
  ["RRIRYRPPRLPRPRPRPGVVPRP", "Not fulfilled"],
  ["RRIRKRPPRLPRPRPRPVWVPRP", "Fulfilled"],
  ["RRIRLRPPRLPRPRPRPMMQPRP", "Not fulfilled"],
  ["RRIRRRPPRLPRPRPRPETTPRP", "Fulfilled"],
  ["RRIRWRPPRLPRPRPRPHRGPRP", "Fulfilled"],
  ["RRIRVRPPRLPRPRPRPHHWPRP", "Not fulfilled"],
  ["RRIRWRPPRLPRPRPRPHWVPRP", "Fulfilled"],
  ["RRIRRRPPRLPRPRPRPWNVPRP", "Fulfilled"],
  ["RRIRQRPPRLPRPRPRPMVEPRP", "Fulfilled"],
  ["RRIRVRPPRLPRPRPRPNTFPRP", "Not fulfilled"],
  ["RRIRVRPPRLPRPRPRPRASPRP", "Fulfilled"],
  ["RRIRNRPPRLPRPRPRPRENPRP", "Fulfilled"],
  ["RRIRYRPPRLPRPRPRPKTVPRP", "Not fulfilled"],
  ["RRIRCRPPRLPRPRPRPRAKPRP", "Fulfilled"]
]}

* * *

System: Escherichia coli TOP10
Assay: shrunken log2 fold change of peptide-encoding DNA abundance (4.5 h post-induction vs induction); higher = less antimicrobial activity (less host growth inhibition)
Details: time post-induction: 4.5 h; library: site-saturation at positions 5, 18, 19, 20
Recorded shrunken log2 fold change, one value per entry.
reported-endpoint: shrunken log2 fold change

{"columns": ["monomer-sequence", "reported-endpoint", "endpoint-value"],
 "data": [
  ["RRIRNRPPRLPRPRPRPRIYPRP", "shrunken log2 fold change", -0.0955],
  ["RRIRIRPPRLPRPRPRPFSHPRP", "shrunken log2 fold change", -0.177],
  ["RRIRERPPRLPRPRPRPHRFPRP", "shrunken log2 fold change", -0.169],
  ["RRIRMRPPRLPRPRPRPKLMPRP", "shrunken log2 fold change", 0.718],
  ["RRIRPRPPRLPRPRPRPQYTPRP", "shrunken log2 fold change", -0.813],
  ["RRIRVRPPRLPRPRPRPYPIPRP", "shrunken log2 fold change", -0.0204],
  ["RRIRYRPPRLPRPRPRPWHKPRP", "shrunken log2 fold change", -0.377],
  ["RRIRDRPPRLPRPRPRPLPEPRP", "shrunken log2 fold change", 0.0958],
  ["RRIRMRPPRLPRPRPRPILNPRP", "shrunken log2 fold change", -0.248],
  ["RRIRMRPPRLPRPRPRPKTIPRP", "shrunken log2 fold change", 0.0873],
  ["RRIRVRPPRLPRPRPRPNLDPRP", "shrunken log2 fold change", -0.0165],
  ["RRIRKRPPRLPRPRPRPKMCPRP", "shrunken log2 fold change", -0.0224],
  ["RRIRDRPPRLPRPRPRPVDHPRP", "shrunken log2 fold change", -0.173],
  ["RRIRMRPPRLPRPRPRPPTAPRP", "shrunken log2 fold change", 1.03],
  ["RRIRWRPPRLPRPRPRPFLRPRP", "shrunken log2 fold change", 0.0966],
  ["RRIRMRPPRLPRPRPRPYQIPRP", "shrunken log2 fold change", -0.0607],
  ["RRIRTRPPRLPRPRPRPRHDPRP", "shrunken log2 fold change", 0.0144],
  ["RRIRKRPPRLPRPRPRPSWRPRP", "shrunken log2 fold change", 0.211],
  ["RRIRDRPPRLPRPRPRPYLRPRP", "shrunken log2 fold change", -0.0137]
]}

* * *

System: Escherichia coli TOP10
Experiment: shrunken log2 fold change of peptide-encoding DNA abundance (4.5 h post-induction vs induction); higher = less antimicrobial activity (less host growth inhibition)
Conditions: time post-induction: 4.5 h; library: site-saturation at positions 5, 18, 19, 20
reported-endpoint: shrunken log2 fold change

{"columns": ["monomer-sequence", "endpoint-value"],
 "data": [
  ["RRIRTRPPRLPRPRPRPTGKPRP", -0.108],
  ["RRIRRRPPRLPRPRPRPSICPRP", 0.00217],
  ["RRIRFRPPRLPRPRPRPCHKPRP", -0.443],
  ["RRIRQRPPRLPRPRPRPSVWPRP", 0.128],
  ["RRIRSRPPRLPRPRPRPKSPPRP", 0.291],
  ["RRIRWRPPRLPRPRPRPALYPRP", 0.232]
]}

* * *

System: Escherichia coli TOP10
Experiment: shrunken log2 fold change of peptide-encoding DNA abundance (4.5 h post-induction vs induction); higher = less antimicrobial activity (less host growth inhibition)
Settings: time post-induction: 4.5 h; library: site-saturation at positions 5, 18, 19, 20
The following sequences are shown together with reported shrunken log2 fold change values.

{"columns": ["monomer-sequence", "shrunken log2 fold change"],
 "data": [
  ["RRIRMRPPRLPRPRPRPWPGPRP", 0.528],
  ["RRIRRRPPRLPRPRPRPKGAPRP", 0.28],
  ["RRIRQRPPRLPRPRPRPNWRPRP", 0.107],
  ["RRIRNRPPRLPRPRPRPKDFPRP", -0.000911]
]}

* * *

System: Escherichia coli TOP10
Assay: shrunken log2 fold change of peptide-encoding DNA abundance (4.5 h post-induction vs induction); higher = less antimicrobial activity (less host growth inhibition)
Settings: time post-induction: 4.5 h; library: site-saturation at positions 5, 18, 19, 20
reported-endpoint: shrunken log2 fold change

{"columns": ["monomer-sequence", "target-under-test", "endpoint-value"],
 "data": [
  ["RRIRMRPPRLPRPRPRPNYFPRP", "Escherichia coli TOP10", 0.0511],
  ["RRIRWRPPRLPRPRPRPTHFPRP", "Escherichia coli TOP10", -0.478],
  ["RRIRPRPPRLPRPRPRPCWQPRP", "Escherichia coli TOP10", -0.021],
  ["RRIRGRPPRLPRPRPRPSLRPRP", "Escherichia coli TOP10", 0.57],
  ["RRIRWRPPRLPRPRPRPWYWPRP", "Escherichia coli TOP10", -0.209]
]}

* * *

System: Escherichia coli TOP10;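 also: peptides expressed intracellularly from a pBAD plasmid library in pooled LB shake-flask culture, induced with 0.3% L-arabinose, DNA abundance read by NGS, three biological replicates, DESeq2 with apeglm shrinkage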
Assay: shrunken log2 fold change of peptide-encoding DNA abundance (4.5 h post-induction vs induction); higher = less antimicrobial activity (less host growth inhibition)
Details: time post-induction: 4.5 h; library: site-saturation at positions 5, 18, 19, 20

{"columns": ["monomer-sequence", "shrunken log2 fold change"],
 "data": [
  ["RRIRLRPPRLPRPRPRPWAFPRP", 0.00977],
  ["RRIRTRPPRLPRPRPRPYALPRP", -0.686],
  ["RRIRTRPPRLPRPRPRPTHYPRP", 0.282],
  ["RRIRARPPRLPRPRPRPKDTPRP", 0.293],
  ["RRIRGRPPRLPRPRPRPKTYPRP", 0.23],
  ["RRIRRRPPRLPRPRPRPQNWPRP", 0.199],
  ["RRIRNRPPRLPRPRPRPNPQPRP", 0.166],
  ["RRIRDRPPRLPRPRPRPWANPRP", 0.0419],
  ["RRIRKRPPRLPRPRPRPLTDPRP", -0.0168],
  ["RRIRRRPPRLPRPRPRPPGQPRP", 0.422],
  ["RRIRKRPPRLPRPRPRPWQTPRP", 0.146],
  ["RRIRSRPPRLPRPRPRPSWTPRP", -0.299],
  ["RRIRTRPPRLPRPRPRPCFKPRP", -0.362],
  ["RRIRERPPRLPRPRPRPTSPPRP", -0.185],
  ["RRIRFRPPRLPRPRPRPPSFPRP", -0.259],
  ["RRIRFRPPRLPRPRPRPHKHPRP", -0.579],
  ["RRIRLRPPRLPRPRPRPICTPRP", -0.243],
  ["RRIRPRPPRLPRPRPRPSIYPRP", -0.584],
  ["RRIRWRPPRLPRPRPRPSRYPRP", -0.483],
  ["RRIRRRPPRLPRPRPRPFYMPRP", -0.198],
  ["RRIRVRPPRLPRPRPRPSVLPRP", 0.226],
  ["RRIRRRPPRLPRPRPRPGMMPRP", 0.257],
  ["RRIRCRPPRLPRPRPRPKKCPRP", -0.186],
  ["RRIRMRPPRLPRPRPRPKAMPRP", 0.705],
  ["RRIRWRPPRLPRPRPRPWATPRP", 0.168],
  ["RRIRQRPPRLPRPRPRPIIPPRP", -0.904],
  ["RRIRGRPPRLPRPRPRPTSVPRP", 0.197],
  ["RRIRKRPPRLPRPRPRPLSVPRP", -0.00128],
  ["RRIRVRPPRLPRPRPRPRVYPRP", -0.587],
  ["RRIRPRPPRLPRPRPRPKEIPRP", -0.0621],
  ["RRIRARPPRLPRPRPRPTAYPRP", 0.223],
  ["RRIRKRPPRLPRPRPRPWPWPRP", 0.847],
  ["RRIRSRPPRLPRPRPRPTNCPRP", 0.0777],
  ["RRIRQRPPRLPRPRPRPHIIPRP", -0.362],
  ["RRIRQRPPRLPRPRPRPHALPRP", -0.6],
  ["RRIRTRPPRLPRPRPRPPPLPRP", 0.352],
  ["RRIRYRPPRLPRPRPRPCALPRP", -0.671],
  ["RRIRGRPPRLPRPRPRPSWFPRP", 0.373],
  ["RRIRIRPPRLPRPRPRPPTEPRP", -0.323],
  ["RRIRMRPPRLPRPRPRPKPPPRP", 1.64],
  ["RRIRMRPPRLPRPRPRPYYLPRP", -0.326],
  ["RRIRFRPPRLPRPRPRPGKFPRP", 0.138],
  ["RRIRQRPPRLPRPRPRPWRVPRP", -0.049],
  ["RRIRERPPRLPRPRPRPTNQPRP", -0.414],
  ["RRIRIRPPRLPRPRPRPKVAPRP", 0.283],
  ["RRIRYRPPRLPRPRPRPTSEPRP", -0.0408],
  ["RRIRGRPPRLPRPRPRPTQFPRP", 0.772]
]}
